test_summary: Lambda max of photochromic test squares by UV-Visible spectrophotometer
Assay type: physicochemical
Design: unit not given here
settings: activated (colored) form in polymer test square; visible spectrum wavelength of maximum absorption; Varian Cary 3
property: (λ) max (VIS)

{"compound": "COc1ccc2c3c(c4c(c2c1)C=CC(c1ccccc1)(c1ccccc1)O4)Cc1ccccc1-3 [Example 1]", "(λ) max (VIS)": 437}
{"compound": "CCCCC1(O)c2ccccc2-c2c1c1c(c3cc(OC)c(OC)cc23)C=CC(c2ccccc2)(c2ccccc2)O1 (centres unmarked) [Example 7]", "(λ) max (VIS)": 445}
{"compound": "COc1cc2c3c(c4c(c2cc1OC)-c1ccccc1C4(C)O)OC(c1ccccc1)(c1ccccc1)C=C3 (centres unmarked) [Example 8]", "(λ) max (VIS)": 459}
{"compound": "COc1ccc(C2(c3ccccc3F)C=Cc3c(c4c(c5cc(OC)c(OC)cc35)-c3ccccc3C4)O2)cc1 (centres unmarked) [Example 3]", "(λ) max (VIS)": 464}
{"compound": "COc1cc2c3c(c4c(c2cc1OC)-c1ccccc1C4O)OC(c1ccccc1)(c1ccccc1)C=C3 (centres unmarked) [Example 9]", "(λ) max (VIS)": 469}
{"compound": "COc1cc2c3c(c4c(c2cc1OC)-c1ccccc1C4)OC(c1ccccc1)(c1ccccc1)C=C3 [Example 2]", "(λ) max (VIS)": 443}
{"compound": "COc1cc2c3c(c4c(c2cc1OC)-c1ccccc1C4(C)C)OC(c1ccccc1)(c1ccccc1)C=C3 [Example 5]", "(λ) max (VIS)": 446}
{"compound": "COc1cc2c3c(c4c(c2cc1OC)-c1ccccc1C4C)OC(c1ccccc1)(c1ccccc1)C=C3 (centres unmarked) [Example 4]", "(λ) max (VIS)": 442}
